I'd appreciate it if you could supply log10 of CC50 values for the items below.
Assay Overview: in vitro
Run Parameters: African green monkey
Quick note: numbers are log10 of CC50, with µg/mL as the unit.

Known results for compounds:
CSc1nc(C)cc2nnc(SCCOc3ccccc3)n12 [5d]; 2.51
CSc1nnc2ccc(-n3nc(C)cc3C)nn12 [10a]; 1.60
CSc1nnc2cc(C)nc(SCc3ccccc3)n12 [6a]; 1.30
Cc1cc(C)n(-c2ccc3nnc(C)n3n2)n1 [compound 8]; 2.68
COC(=O)CSc1nnc2cc(C)nc(SC)n12 [5c]; 1.60
CSc1nnc2cc(C)nc(SC)n12 [5a]; 2.38

Below are 3 compounds. Give each one its log10 of CC50.
1. Cc1cc(C)n(-c2ccc3nnc(SCCOc4ccccc4)n3n2)n1 [10d]
2. Cc1cc2nnc(SCCOc3ccccc3)n2c(SCc2ccccc2)n1 [6d]
3. Cc1cc(C)n(-c2ccc3nnc(SCC(N)=O)n3n2)n1 [10b]

[out]
2.68
2.51
2.38

###

Test system: SARS-CoV-2 (delta strain)
Design: species or system Syrian hamsters
Run Parameters: hamster, in vivo
Parameter: Development of lung injury (micro-CT)

Cc1cc(C)n(-c2ccc3nnc(SCCOc4ccccc4)n3n2)n1 [10d]; inhibited
Cc1cc(C)n(-c2ccc3nnc(SCC(N)=O)n3n2)n1 [10b]; inhibited
CSc1nc(C)cc2nnc(SCCOc3ccccc3)n12 [5d]; inhibited
Cc1cc(C)n(-c2ccc3nnc(C)n3n2)n1 [compound 8]; inhibited

Recorded values, source paper PMC11283614.
